Give IC50 for every item shown.
target: protein-protein interaction between Kras and SOS1 (biotin-tagged human Kras loaded with GDP, His-tagged human SOS1) (Homo sapiens (Human), UniProt P01116, G12D)
experiment: Protein-protein interaction inhibition between Kras and SOS1 (KrasG12D-SOS PPI) using AlphaScreen;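 further: kras produced in E. coli, Ni-coupled donor beads and streptavidin acceptor beads, excitation 680 nm with emission detected at 520–620 nm via singlet oxygen transfer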
Type: biochemical
test_conditions: AlphaScreen; biotin-tagged human Kras loaded with GDP, His-tagged human SOS1; read-out: KRAS G12D-SOS PPI IC50
Numbered stars: 1 amine (or outer) side, 2 acyl side, 3 side chain; on linkers, the order of the positions; unused ones are H or OH. Square brackets hold non-standard residues; d marks the D form. Peptide text beside a SMILES is read from it. * marks the point of attachment. hPhe(3-Cl-4-CF3) = N[C@@H](CCc1ccc(C(F)(F)F)c(Cl)c1)C(=O)O; hPhe(3-F,4-CF3) = N[C@@H](CCc1ccc(C(F)(F)F)c(F)c1)C(=O)O; NMePhe(4-CF3) = CN[C@@H](Cc1ccc(C(F)(F)F)cc1)C(=O)O; NMedβ3hAla = C[C@H](CC(=O)[*:2])N(C)[*:1]; NMeGly(cPent) = CN[C@H](C(=O)O)C1CCCC1; NMeI = CC[C@H](C)[C@H](NC)C(=O)O; NMeL = CN[C@@H](CC(C)C)C(=O)O; d(β3hA) = C[C@@H](N)CC(=O)O; NMeS = CN[C@@H](CO)C(=O)O; NMeA = CN[C@@H](C)C(=O)O; Ac5c = NC1(C(=O)O)CCCC1; Aze = O=C(O)[C@@H]1CCN1; Sar = CNCC(=O)O; Propyl = CCC*
Numbers only, in nM.

# molecule, data_value
data = [
    ("CC[C@H](C)[C@@H]1NC(=O)[C@H](C)N(C)C(=O)C[C@@H](C)NC(=O)[C@H](C2CCCC2)N(C)C(=O)C2(CCCC2)NC(=O)[C@@H]2CCCN2C(=O)[C@H](CCc2ccc(C(F)(F)F)c(Cl)c2)NC(=O)CN(C)C(=O)[C@H](Cc2ccc(C(F)(F)F)cc2)N(C)C(=O)[C@@H]2CCCN2C(=O)CN(C)C1=O [Compound 749] (cyclo([Ac5c][NMeGly(cPent)][d(β3hA)][NMeA]I[Sar]P[NMePhe(4-CF3)][Sar][hPhe(3-Cl-4-CF3)]P))", 2.8),
]

Continue with the next molecule.
Per the records, this molecule ( CCCOC[C@H]1C(=O)N(C)CC(=O)N[C@@H](CCc2ccc(C(F)(F)F)c(F)c2)C(=O)N2CCC[C@H]2C(=O)NC2(CCCC2)C(=O)N(C)[C@@H]([C@@H](C)CC)C(=O)N(C)[C@H](C)CC(=O)N(C)[C@@H](CC(C)C)C(=O)N[C@@H]([C@@H](C)CC)C(=O)N(C)[C@@H](C)C(=O)N2CC[C@H]2C(=O)N1C [Compound 694] (cyclo([Ac5c][NMeI][NMedβ3hAla][NMeL]I[NMeA][Aze][NMeS](Propyl)[Sar][hPhe(3-F,4-CF3)]P)) ) has IC50 equal to 14
